B1: CSTF3 (parent)
chain: YVPEKVKKAEKKLEENPYDLDAWS

# Variants of: B1
# ASSAY_REMARKS: protein stability index of a GFP-peptide fusion (GPS, HEK-293T) (PSI 1-6); higher = more stable;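 note: lentivirally expressed fusions sorted by FACS into six bins by GFP to DsRed ratio, PSI derived from sequencing read proportions per bin multiplied by bin number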
# MEASUREMENT_PARAMETERS: c terminus: a fixed tail appended
# label = condition met if protein stability index >= 2 else condition not met

protein stability index >= 2 for K12L ?
condition met

Test whether the variant E4M records protein stability index of 2 or higher.
condition not met

Confirm if protein stability index reported for the variant D19N is 2 or above.
condition met

Textbook exercise: given the entry K7W , state whether its protein stability index is greater than or equal to 2.
condition met

Exam item: decide whether the reported protein stability index for W23V is at least 2.
condition met

Record W23E ; criterion: protein stability index no lower than 2. Met?
condition not met

Does the variant L20C have recorded protein stability index that is 2 or more?
condition met

For this variant, is measured protein stability index 2 or higher? V2H
condition met

Confirm if protein stability index reported for the variant A9S is 2 or above.
condition met

Could you please find out whether E15Y has protein stability index that meets 2 or exceeds it?
condition met

Hello, I need to know if S24Y has measured protein stability index not below 2. Thanks!
condition met

Reported protein stability index reaches at least 2 for L20A ?
condition met

Could you verify whether the entry L13P shows protein stability index of no less than 2?
condition met

protein stability index >= 2 for E10F ?
condition met

Kindly determine if protein stability index recorded for D21H is above or exactly 2.
condition met

# check: protein stability index of A22S is greater than or equal to 2
condition met

Decide: is the reported value of protein stability index for K8Q equal to or greater than 2?
condition met

Quick check, protein stability index >= 2? Y1E
condition met

Does protein stability index meet or surpass 2 for V2F ?
condition met

Is reported protein stability index greater than or equal to 2 here: P17Y
condition met

# check: protein stability index of E10C is greater than or equal to 2
condition met

Could you tell me if the measured protein stability index of K12C reaches 2 or more?
condition met

Evaluate K11V : protein stability index at minimum 2?
condition met

Threshold query (protein stability index >= 2) on P17E
condition met

Determine whether measured protein stability index meets or exceeds 2 for E15M
condition met

Threshold query (protein stability index >= 2) on Y1F
condition met

# bool: protein stability index of P3K >= 2
condition met

Test whether the variant E15T records protein stability index of 2 or higher.
condition not met

# bool: protein stability index of A22T >= 2
condition not met

Check this variant for protein stability index at or above 2: V6I
condition met

Identify whether the reported protein stability index of the following variant is 2 or greater: P3L
condition not met

Reported protein stability index reaches at least 2 for V6R ?
condition not met

Exam item: decide whether the reported protein stability index for K7C is at least 2.
condition met

Is the recorded value of protein stability index equal to or greater than 2 for this variant? E4A
condition met

Is the recorded value of protein stability index equal to or greater than 2 for this variant? K5E
condition not met

protein stability index >= 2 for K12A ?
condition met

Would you say E14F shows protein stability index at minimum 2?
condition not met

Hello, I need to know if V6S has measured protein stability index not below 2. Thanks!
condition met

Entry E14V : is its protein stability index no less than 2?
condition met

Hi, just wondering whether E4W shows protein stability index of 2 or higher.
condition met

Tell me whether protein stability index is at least 2 here: K5P
condition met

I'd appreciate it if you could say whether E14I has protein stability index at least equal to 2.
condition met

Could you tell me if the measured protein stability index of P3M reaches 2 or more?
condition not met

In plain terms: is recorded protein stability index at least 2 for K7F ?
condition met

Does the reported protein stability index for Y1D fall at or above the 2 mark?
condition met

Values were extracted from the supplement of paper PMC10567573.
